Each record here notes measured melting point.

Use the examples below as a reference point.
{"SMILES TEXT": "Cc1cc(OCC(F)(F)F)c(NC(=O)CN2CCN(CCSc3nc4ccccc4o3)CC2)c(OCC(F)(F)F)n1", "melting point": "141 to 142 °C"}
{"SMILES TEXT": "CSc1cc(C)nc(SC)c1NC(=O)CN1CCN(CCSc2nc3cc(C(F)(F)F)ccc3o2)CC1", "melting point": "103 to 104 °C"}
{"SMILES TEXT": "Cc1cc(C(F)(F)F)c(NC(=O)CN2CCN(CCSc3nc4ccccc4s3)CC2)c(C)n1", "melting point": "107 to 108 °C"}

Now turn to the next compound.
Looking up Cc1cc(OCC(F)(F)F)c(NC(=O)CN2CCN(CCSc3nc4cc(F)c(F)cc4[nH]3)CC2)c(OCC(F)(F)F)n1 , I see its melting point listed as 191 to 192 °C
